- Tested on: HCV replicon cells Huh 9B
- Assay type: cell-based
- MEASUREMENT SETUP: concentration reducing total cell area by 50% relative to DMSO controls; methylene blue, absorbance 620 nm; 72 h incubation
REPORTED ENDPOINT: TD50

Recorded results for 5 compounds are shown here.
Noted for Cc1ccc(C(=O)Nc2ccc(N3CCOCC3)cc2)cc1-c1ccc(NC(=O)c2ccc(CN3CCOCC3)cc2)cc1 : its TD50 reads * (* < 50 μM)

Noted for Cc1ccc(NC(=O)c2cccnc2)cc1-c1ccc(C(=O)Nc2ccc(CN3CCS(=O)(=O)CC3)cc2)cc1 : its TD50 reads * (* < 50 μM)

Noted for CCOC(=O)c1cccc(NC(=O)c2ccc(-c3cc(C(=O)Nc4ccc(N5CCOCC5)cc4)ccc3C)cc2)c1 : its TD50 reads ** (** > 50 μM)

Noted for Cc1ccc(C(=O)Nc2ccc(N3CCOCC3)cc2)cc1-c1ccc(NC(=O)c2ccc(N3CCOCC3)cc2)cc1 : its TD50 reads ** (** > 50 μM)

Noted for CCCS(=O)(=O)N1CCN(Cc2ccc(NC(=O)c3ccc(-c4cc(NC(=O)[C@H]5CCCCN5)ccc4OC(F)(F)F)cc3)cc2)CC1 : its TD50 reads * (* < 50 μM)

List the reported TD50 of each compound below.
1. COc1ccccc1C(=O)Nc1ccc(-c2cccc(C(=O)Nc3ccc(CN4CCS(=O)(=O)CC4)cc3)c2)c(C)c1
2. CCCS(=O)(=O)N1CCN(Cc2ccc(NC(=O)c3ccc(-c4cc(C(=O)Nc5ccc(N6CCOCC6)cc5)ccc4OC)cc3)cc2)CC1

["* (* < 50 μM)", "* (* < 50 μM)"]

---

- System: HCV replicon cells Huh 9B
- Type: cell-based
- MEASUREMENT SETUP: concentration reducing total cell area by 50% relative to DMSO controls; methylene blue, absorbance 620 nm; 72 h incubation
- Method: HCV replicon cells Huh 9B (ReBlikon), containing the firefly luciferase-ubiquitin-neomycin phosphotransferase fusion protein and EMCV-IRES driven HCV polyprotein with cell culture adaptive mutations. A flask of cells was trypsinised and a cell count carried out. […] Wells G12 and H12 were left empty in the clear plate as the blank. Plates were then incubated at 37° C. in a 5% CO2 environment for 24 h. […]
REPORTED ENDPOINT: TD50

Noted for Cc1ccc(NC(=O)CC2CCCCC2)cc1-c1ccc(C(=O)Nc2ccc(CN3CCS(=O)(=O)CC3)cc2)cc1 [Example 165] : its TD50 reads * (* < 50 μM)

Noted for CCOC(=O)c1ccc(-c2cc(C(=O)Nc3ccc(N4CCOCC4)cc3)ccc2C)cc1 [Example 84] : its TD50 reads ** (** > 50 μM)

Noted for COc1ccccc1C(=O)Nc1ccc(-c2cccc(C(=O)Nc3ccc(N4CCOCC4)cc3)c2)c(C)c1 [Example 115] : its TD50 reads * (* < 50 μM)

Noted for Cc1ccc(C(=O)Nc2ccc(N3CCOCC3)cc2)cc1-c1ccc(CNCCc2cnc[nH]2)cc1 [Example 100] : its TD50 reads ** (** > 50 μM)

Noted for Cc1ccc(NC(=O)C2CCCCC2)cc1-c1ccc(C(=O)Nc2ccc(CN(C)C)cc2)cc1 [Example 222] : its TD50 reads * (* < 50 μM)

Noted for Cc1ccc(NS(=O)(=O)c2ccc(Cl)cc2)cc1-c1ccc(C(=O)Nc2ccc(CN3CCS(=O)(=O)CC3)cc2)cc1 [Example 202] : its TD50 reads ** (** > 50 μM)

List the reported TD50 of each molecule below.
1. Cc1ccc(NC(=O)C2CC2)cc1-c1ccc(C(=O)Nc2ccccc2CN2CCCCC2)cc1 [Example 224]
2. CCCS(=O)(=O)N1CCN(Cc2ccc(NC(=O)c3ccc(-c4cc(C(=O)Nc5ccc(N6CCOCC6)cc5C)ccc4OC)cc3)cc2)CC1 [Example 260]

["* (* < 50 μM)", "* (* < 50 μM)"]

List the reported TD50 of each molecule below.
1. Cc1ccc(NC(=O)c2ccc(N3CCOCC3)cc2)cc1-c1ccc(C(=O)Nc2cccc(OC(F)(F)F)c2)cc1 [Example 68]
2. CC(=O)Nc1ccc(NC(=O)c2ccc(-c3cc(NC(=O)c4ccc(N5CCOCC5)cc4)ccc3C)cc2)cc1 [Example 86]
3. CCCS(=O)(=O)N1CCN(Cc2ccc(NC(=O)c3ccc(-c4cc(NC(=O)NC5CCCCC5)ccc4Cl)cc3)cc2)CC1 [Example 253]
4. Cc1ccc(C(=O)Nc2ccc(N3CCOCC3)cc2)cc1-c1ccc(CNCCN(C)C)cc1 [Example 102]

** (** > 50 μM)
** (** > 50 μM)
* (* < 50 μM)
* (* < 50 μM)

List the reported TD50 of each molecule below.
1. CCCS(=O)(=O)N1CCN(Cc2ccc(NC(=O)c3ccc(-c4cc(C(=O)Nc5ccc(N6CCOCC6)c(F)c5)ccc4Cl)cc3)cc2)CC1 [Example 264]
2. Cc1ccc(CNCc2cccc(Cl)c2)cc1-c1ccc(C(=O)Nc2ccc(CN3CCS(=O)(=O)CC3)cc2)cc1 [Example 199]

* (* < 50 μM)
* (* < 50 μM)

---

Kindly supply the reported pIC50 values for the records listed here.
- System: HCV replicon cells Huh 9B
- PROCEDURE TEXT: HCV replicon assay (luciferase readout)
- Type: cell-based
pIC50: −log10 of the molar value.

Recorded results for 4 compounds are shown here.
Noted for Cc1ccc(C(=O)Nc2ccc(N3CCOCC3)cc2)cc1-c1ccc(C(=O)Nc2ccc(CN3CCCCC3)cc2)cc1 : its pIC50 reads > 6.00

Noted for Cc1ccc(C(=O)Nc2ccc(C(=O)N(C)C)cc2)cc1-c1ccc(C(=O)Nc2ccc(CN3CCS(=O)(=O)CC3)cc2)cc1 : its pIC50 reads 5.30 to 6.00

Noted for Cc1cc(C(=O)Nc2ccc(N3CCOCC3)cc2)ccc1-c1cccc(C(=O)Nc2ccc(-c3ccno3)cc2)c1 : its pIC50 reads > 6.00

Noted for Cc1ccc(C(=O)Nc2ccc(N3CCOCC3)cc2)cc1-c1ccc(C(=O)NCc2cccc(OC(F)(F)F)c2)cc1 : its pIC50 reads > 6.00

List the reported pIC50 of each compound below.
1. Cc1ccc(C(=O)NCC2CCCCC2)cc1-c1ccc(C(=O)Nc2ccc(CN3CCS(=O)(=O)CC3)cc2)cc1
2. Cc1ccc(C(=O)NC2CCCC2)cc1-c1ccc(C(=O)Nc2ccc(CN3CCS(=O)(=O)CC3)cc2)cc1

1: > 6.00; 2: 5.30 to 6.00

Noted for Cc1ccc(C(=O)Nc2ccc(N3CCOCC3)cc2)cc1-c1ccc(C(=O)Nc2ccccc2CN2CCCCC2)cc1 : its pIC50 reads 5.30 to 6.00

---

- System: HCV replicon cells Huh 9B
- PROCEDURE TEXT: HCV replicon assay (luciferase readout)
- Assay type: cell-based
pIC50: −log10 of the molar value.
REPORTED ENDPOINT: pIC50

Noted for Cc1ccc(C(=O)Nc2ccc(N3CCOCC3)cc2)cc1-c1ccc(C(=O)Nc2cccc(OC(F)(F)F)c2)cc1 : its pIC50 reads 5.30 to 6.00

List the reported pIC50 of each compound below.
1. Cc1ccc(C(=O)Nc2ccc(N3CCOCC3)cc2)cc1-c1ccc(C(=O)NCCC(C)C)cc1
2. Cc1ccc(C(=O)NC2CC2)cc1-c1ccc(C(=O)Nc2ccc(N3CCOCC3)cc2)cc1
3. Cc1ccc(CNC(=O)c2ccc(-c3cc(C(=O)Nc4ccc(N5CCOCC5)cc4)ccc3C)cc2)cc1Cl
4. Cc1ccc(C(=O)Nc2ccc(N3CCOCC3)cc2)cc1-c1ccc(C(=O)Nc2ccccc2CN(C)C2CCCCC2)cc1
5. Cc1ccc(C(=O)Nc2ccc(N3CCOCC3)cc2)cc1-c1ccc(C(=O)NCCc2cnc[nH]2)cc1
6. CNS(=O)(=O)c1ccc(NC(=O)c2ccc(-c3cc(C(=O)Nc4ccc(N5CCOCC5)cc4)ccc3C)cc2)cc1

5.30 to 6.00
5.30 to 6.00
> 6.00
< 5.30
< 5.30
> 6.00

---

- System: HCV replicon cells Huh 9B
- Assay type: cell-based
- MEASUREMENT SETUP: concentration reducing total cell area by 50% relative to DMSO controls; methylene blue, absorbance 620 nm; 72 h incubation
REPORTED ENDPOINT: TD50

Recorded results for 6 molecules are shown here.
Noted for Cc1ccc(NC(=O)c2ccco2)cc1-c1ccc(C(=O)Nc2ccc(N3CCOCC3)cc2)cc1 : its TD50 reads * (* < 50 μM)

Noted for COc1ccc(S(=O)(=O)Nc2ccc(N3CCOCC3)cc2)cc1-c1ccc(C(=O)Nc2ccc(CN3CCN(S(=O)(=O)C(C)C)CC3)cc2)cc1 : its TD50 reads * (* < 50 μM)

Noted for Cc1ccc(NC(=O)C2CCCCC2)cc1-c1ccc(C(=O)Nc2ccc(CN3CCS(=O)(=O)CC3)cc2)cc1 : its TD50 reads * (* < 50 μM)

Noted for Cc1ccc(-c2noc(C3CCCCC3)n2)cc1-c1ccc(C(=O)Nc2ccc(CN3CCS(=O)(=O)CC3)cc2)cc1 : its TD50 reads * (* < 50 μM)

Noted for Cc1cccc(CNC(=O)c2ccc(-c3cc(NC(=O)c4ccc(N5CCOCC5)cc4)ccc3C)cc2)c1 : its TD50 reads ** (** > 50 μM)

Noted for CCC1(c2ccc(NC(=O)c3ccc(-c4cc(NC(=O)C5CCCCC5)ccc4C)cc3)cc2)CCC(=O)NC1=O (stereo not shown) : its TD50 reads * (* < 50 μM)

Now consider a different molecule.
Noted for Cc1ccc(C(=O)Nc2ccc(N3CCOCC3)cc2)cc1-c1ccc(C(=O)N2CCN(c3cccc(Cl)c3Cl)CC2)cc1 : its TD50 reads ** (** > 50 μM)
